This listing pairs molecules with measured concentration at 20 min.
Test: Determination of bioavailability (blood levels, ex-vivo bioassay)
Type: in vivo
Details: mouse, blood, po, 50 mg/kg, mice, 50 mg/kg p.o., 20′; read-out: blood level, P.o. method, 20′
Write the value in ng/mL as a bare number.

| MOLECULE | concentration at 20 min / ng/mL |
| --- | --- |
| CNC(=O)[C@H](Cc1ccc(OC)cc1)NC(=O)C(O)(CC(C)C)[C@H](O)C(=O)NO (stereo partly drawn) | 9000 |
| CNC(=O)[C@H](Cc1ccc(OC)cc1)NC(=O)[C@](O)(CC(C)C)[C@H](C)C(=O)NO [drawing 114] | 2100 |
| CNC(=O)C(Cc1ccc(Cl)c(Cl)c1)NC(=O)[C@](O)(CC(C)C)[C@H](C)C(=O)NO (stereo partly drawn) | 300 |
| CC(C)C[C@@](O)(C(=O)N[C@@H](Cc1ccc(Cl)c(Cl)c1)C(=O)NCCOCCO)[C@H](C)C(=O)NO [drawing 120] | 100 |

Kindly consider the entry below.
So what's the measured concentration at 20 min for this one? `CNC(=O)[C@@H](NC(=O)[C@H](CC(C)C)[C@H](O)C(=O)NO)C(C)C`
4300

###

Target: 92 kDa gelatinase of human origin (Homo sapiens, UniProt P14780)
Sequence (P14780 94-707): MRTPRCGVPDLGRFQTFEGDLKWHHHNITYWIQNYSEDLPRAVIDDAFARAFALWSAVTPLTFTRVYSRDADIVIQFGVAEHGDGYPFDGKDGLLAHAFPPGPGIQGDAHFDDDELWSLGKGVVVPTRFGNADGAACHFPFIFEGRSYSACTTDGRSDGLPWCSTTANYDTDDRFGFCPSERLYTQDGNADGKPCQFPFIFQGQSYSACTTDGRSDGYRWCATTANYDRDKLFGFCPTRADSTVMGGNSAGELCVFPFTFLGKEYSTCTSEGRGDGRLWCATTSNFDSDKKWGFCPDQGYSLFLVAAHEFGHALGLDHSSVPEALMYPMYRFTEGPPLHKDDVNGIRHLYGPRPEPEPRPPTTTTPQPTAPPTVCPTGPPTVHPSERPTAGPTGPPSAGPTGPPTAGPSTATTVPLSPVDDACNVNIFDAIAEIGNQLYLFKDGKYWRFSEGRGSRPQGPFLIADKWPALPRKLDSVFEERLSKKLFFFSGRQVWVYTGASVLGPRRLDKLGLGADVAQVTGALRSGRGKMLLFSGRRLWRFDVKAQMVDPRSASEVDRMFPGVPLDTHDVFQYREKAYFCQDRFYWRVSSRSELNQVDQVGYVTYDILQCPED
Experiment: Activity on gelatinase, radiomarked gelatin
Format: biochemical
Details: test performed with radiomarked gelatin; read-out: C150 (nM) gelatinase 92 kDa*
READOUT KIND: IC50 (nM)
Write down the numeric answer in nM and omit the unit.

| MOLECULE | IC50 [nM] |
| --- | --- |
| CC(C)C[C@@](O)(C(=O)N[C@@H](Cc1ccc(Cl)cc1)C(=O)NCCC#N)[C@H](C)C(=O)NO [Example 27] | 1.7 |

Recorded IC50 of CC(C)C[C@@](O)(C(=O)N[C@@H](Cc1ccc(Cl)c(Cl)c1)C(=O)NCCN1CCOCC1)[C@H](C)C(=O)NO [Example 35b] , please.
1.1

Also CNC(=O)[C@H](Cc1ccccc1)NC(=O)[C@](O)(CC(C)C)[C@H](C)C(=O)NO [Example 4] , if possible.
10

What do you get for CSCCNC(=O)[C@H](Cc1ccc(I)cc1)NC(=O)[C@](O)(CC(C)C)[C@H](C)C(=O)NO [Example 15] ?
0.001

// query: CC(C)C[C@@](O)(C(=O)N[C@@H](Cc1ccc(Cl)c(Cl)c1)C(=O)NCCOCCO)[C@H](C)C(=O)NO [Example 19]
0.001

CNC(=O)[C@H](Cc1ccc(OC)cc1)NC(=O)[C@H](CC(C)C)[C@H](C)C(=O)NO [drawing 111, reference compound] , same question.
7

Next record, please: CNC(=O)[C@H](Cc1ccc(Cl)cc1Cl)NC(=O)[C@](O)(CC(C)C)[C@H](C)C(=O)NO [Example 20]
0.2

Similarly, CNC(=O)[C@H](Cc1ccc(Cl)cc1)NC(=O)[C@](O)(CC(C)C)[C@H](C)C(=O)NO [Example 10] ?
2

What about this molecule? CNC(=O)[C@H](Cc1ccc(Br)cc1)NC(=O)[C@](O)(CC(C)C)[C@H](C)C(=O)NO [Example 11]
2

###

Test: Determination of bioavailability (blood levels, ex-vivo bioassay)
Assay type: in vivo
Conditions: mice, 50 mg/kg p.o., 10′
Experimental: The compounds of this invention were administered i.p. or p.o. between 1 and 50 mg/kg to mice: the blood levels then were determined by an ex-vivo bioassay according to Wang X. et al. (Cancer Res., 54, 4726-4728, 1994). The introduction of an OH group systematically increases the bioavailability of the products.
READOUT KIND: blood level, P.o. method, 10′ (µg/mL)
// return numeric value only (unit: µg/mL, not printed)

| COMPOUND | UNIT ABBREVIATION | MEAS VALUE |
| --- | --- | --- |
| CC(C)C[C@@](O)(C(=O)N[C@@H](Cc1ccc(Cl)c(Cl)c1)C(=O)NCCN1CCOCC1)[C@H](C)C(=O)NO [drawing 119] | µg/mL | 1.25 |
| CC(C)C[C@@](O)(C(=O)N[C@@H](Cc1ccc(Cl)c(Cl)c1)C(=O)NCCN1CCOCC1)[C@H](C)C(=O)NO [drawing 118] | µg/mL | 0.1 |
| CC(C)C[C@@](O)(C(=O)N[C@@H](Cc1ccc(Cl)cc1)C(=O)NCCN1CCOCC1)[C@H](C)C(=O)NO [drawing 115] | µg/mL | 2.3 |

Please examine the following record next.
For the compound shown here, CC(C)C[C@@](O)(C(=O)N[C@@H](Cc1ccc(Cl)cc1)C(=O)NCCN1CCOCC1)[C@H](C)C(=O)NO [drawing 116] , give the reported blood level, P.o. method, 10′.
5.1

###

Quick reference: concentration at 10 min of the listed items.
Experiment: Determination of bioavailability (blood levels, ex-vivo bioassay)
Type: in vivo
Settings: mouse, blood, po, 50 mg/kg, mice, 50 mg/kg p.o., 10′; read-out: blood level, P.o. method, 10′
Give the value in ng/mL but do not write ng/mL after it.

These solved cases illustrate the format of a correct answer.
| COMPOUND | concentration at 10 min (ng/mL) |
| --- | --- |
| CNC(=O)C(Cc1ccc(Cl)c(Cl)c1)NC(=O)[C@](O)(CC(C)C)[C@H](C)C(=O)NO (stereo partly drawn) | 600 |
| CC(C)C[C@@](O)(C(=O)N[C@@H](Cc1ccc(Cl)c(Cl)c1)C(=O)NCCOCCO)[C@H](C)C(=O)NO [drawing 120] | 100 |
| CNC(=O)[C@@H](NC(=O)[C@H](CC(C)C)[C@H](O)C(=O)NO)C(C)C | 2200 |
| CNC(=O)[C@H](Cc1ccc(OC)cc1)NC(=O)C(O)(CC(C)C)[C@H](O)C(=O)NO (stereo partly drawn) | 10000 |

Switching to the query record.
Suppose we examine the compound CNC(=O)[C@H](Cc1ccc(OC)cc1)NC(=O)[C@](O)(CC(C)C)[C@H](C)C(=O)NO [drawing 114] ; what concentration at 10 min value has been reported?
4200

###

Target: collagenase of the human monocytic stock U937 (Homo sapiens, UniProt P03956)
Construct: the collagenase of the human monocytic stock U937; endogenous in cells; host or cells: U937 human monocytic cell line
Sequence (P03956 100-469): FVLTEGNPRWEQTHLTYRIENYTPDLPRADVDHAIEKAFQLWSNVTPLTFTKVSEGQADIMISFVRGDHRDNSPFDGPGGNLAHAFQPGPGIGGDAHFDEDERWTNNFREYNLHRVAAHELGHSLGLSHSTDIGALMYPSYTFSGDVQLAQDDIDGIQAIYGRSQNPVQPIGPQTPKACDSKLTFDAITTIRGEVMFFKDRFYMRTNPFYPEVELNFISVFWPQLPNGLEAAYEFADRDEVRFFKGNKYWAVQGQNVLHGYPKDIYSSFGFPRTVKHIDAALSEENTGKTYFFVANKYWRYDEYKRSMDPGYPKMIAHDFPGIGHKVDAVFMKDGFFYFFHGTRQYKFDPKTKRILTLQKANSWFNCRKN
Assay: Activity on collagenase
Assay type: biochemical
Settings: radiomarked collagen, 27° C., 16 hours; read-out: C150 (nM) collagenase
# strict inequality: IC50 < 10 nM yields true, everything else yields false

| COMPOUND | CLASS |
| --- | --- |
| CNC(=O)[C@H](Cc1ccc(N)cc1)NC(=O)[C@](O)(CC(C)C)[C@H](C)C(=O)NO [Example 9] | false |
| CNC(=O)[C@H](Cc1ccc(F)cc1)NC(=O)[C@](O)(CC(C)C)[C@H](C)C(=O)NO [Example 16] | false |
| CNC(=O)[C@H](Cc1ccc(OC)cc1)NC(=O)[C@](O)(CC(C)C)[C@H](C)S [Example 36] | false |
| CNC(=O)[C@H](Cc1ccc(Cl)c(Cl)c1)NC(=O)[C@](O)(CCCc1ccccc1)[C@H](C)C(=O)NO [Example 33] | false |

In the record for CC(C)C[C@@](O)(C(=O)N[C@@H](Cc1ccc(Cl)c(Cl)c1)C(=O)NCCN1CCOCC1)[C@H](C)C(=O)NO [Example 35b] , is IC50 less than 10 nM?
true

What do we get for CNC(=O)[C@H](Cc1ccccc1)NC(=O)[C@](O)(CC(C)C)[C@H](C)C(=O)NO [Example 4] ?
false

Also need CNC(=O)[C@H](Cc1ccc(Cl)cc1)NC(=O)[C@](O)(CC(C)C)[C@H](C)C(=O)NO [Example 10] , thanks.
true

###

Experiment: Determination of bioavailability (blood levels, ex-vivo bioassay)
Format: in vivo
Details: mice, 50 mg/kg i.p., 20′
Measured blood level, I.p. method, 20′ of individual entries
Only the number, expressed in ng/mL, is required.

Some compounds with recorded blood level, I.p. method, 20′:
| COMPOUND | UNIT ABBREVIATION | MEAS VALUE |
| --- | --- | --- |
| CC(C)C[C@@](O)(C(=O)N[C@@H](Cc1ccc(Cl)cc1)C(=O)NCCN1CCOCC1)[C@H](C)C(=O)NO [drawing 116] | ng/mL | 13000 |
| CC(C)C[C@@](O)(C(=O)N[C@@H](Cc1ccc(Cl)c(Cl)c1)C(=O)NCCN1CCOCC1)[C@H](C)C(=O)NO [drawing 118] | ng/mL | 500 |
| CC(C)C[C@@](O)(C(=O)N[C@@H](Cc1ccc(Cl)c(Cl)c1)C(=O)NCCN1CCOCC1)[C@H](C)C(=O)NO [drawing 119] | ng/mL | 5000 |

Bench note: what blood level, I.p. method, 20′ did CC(C)C[C@@](O)(C(=O)N[C@@H](Cc1ccc(Cl)cc1)C(=O)NCCN1CCOCC1)[C@H](C)C(=O)NO [drawing 115] show?
27000
